These measurements were taken from PubChem BioAssay (EPA / NIEHS).

# protocol-text: ACEA_AR_antagonist_AUC_viability: ACEA Biosciences xCELLigence Real-Time Cell Analysis on Androgen Receptor Antagonism for Viability (AID 2283776);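 further: 22Rv1 human prostate cancer cells growing on impedance electrode plates; area under impedance growth curve at 80 h after dosing as viability; hits lower the growth signal relative to DMSO meaning cytotoxicity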
Results filed as inconclusive are left out. The source made the active and inactive calls. How the source made its calls: active means hit-call score of the fitted dose curve at least 0.9, where 1 is the maximum; inconclusive means response in the unintended direction; inactive means score below 0.9.
Form entry, call: pick from true (1) (active), false (0) (inactive)

# molecule, category
records = [
    ("Nc1cc2c3c(c1)C(c1ccccc1)=N[C@@H](NC(=O)c1cccnc1)C(=O)N3CC2", "false (0)"),
    ("ClC(Cl)(Cl)c1ccccc1", "false (0)"),
    ("Nc1ccc2ccccc2c1", "false (0)"),
    ("Nc1ccc(Cl)cc1", "true (1)"),
    ("CN(C)C(=O)Cl", "false (0)"),
    ("CCOC(=O)c1ccccc1C(=O)OCC", "false (0)"),
    ("Cc1ccc([N+](=O)[O-])cc1C", "false (0)"),
    ("ClC1=C(Cl)C2(Cl)C3C(Cl)C(Cl)CC3C1(Cl)C2(Cl)Cl (centres undefined)", "true (1)"),
]

Kindly provide the recorded test outcome for the following molecule: `CCOc1ccc(C(C)(C)COCc2cccc(Oc3ccccc3)c2)cc1`
true (1)

----------
# protocol-text: BSK_3C_Proliferation: Cell Proliferation Assessment in the BioMAP Diversity Plus: 3C Assay (AID 2283006);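 on AC50: potency may reflect either rise or fall in cell number versus DMSO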
# condition-details: primary human endothelial cells (HUVEC)
The source made the active and inactive calls. How the source made its calls: active means hit-call score of the fitted dose curve at least 0.9, where 1 is the maximum; inactive means score below 0.9.
recorded-metric: AC50

Please review the following examples before continuing.
# compound, AC50
records = [
    ("CCN(CC)c1ccccc1", "inactive"),
    ("CC(C)Nc1ccc(Nc2ccccc2)cc1", "1.82 µM (active)"),
    ("O=C(O)C(Cl)Cl", "inactive"),
    ("CCOP(=S)(Oc1ccc([N+](=O)[O-])cc1)c1ccccc1 (stereo unspecified)", "13.5 µM (active)"),
    ("CSC(C)(C)C=NO", "inactive"),
]

Entry `CC(C)(C)c1ccccc1OP(=O)(Oc1ccccc1)Oc1ccccc1` needs its AC50 filled in; supply it.
20 µM (active)

----------
# protocol-text: BSK_3C_Vis: BioMAP Diversity Plus: 3C Assay for Morphology Visualization (AID 2283025);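 further: fitted both ways so gain or loss versus DMSO counts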;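 on AC50: light microscopy image of cell morphology used as background control; cells imaged 24 h after dosing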
# condition-details: primary human endothelial cells (HUVEC)
Calls of active or inactive are those of the source. How the source made its calls: active means hit-call score of the fitted dose curve at least 0.9, where 1 is the maximum; inactive means score below 0.9.
recorded-metric: AC50

Please review the following examples before continuing.
# compound, AC50
measured = [
    ("O=P1(N(CCCl)CCCl)NCCCO1 (centres undefined)", "inactive"),
    ("O=P(OCC(Br)CBr)(OCC(Br)CBr)OCC(Br)CBr (centres undefined)", "12.4 µM (active)"),
    ("COP(N)(=S)OC", "inactive"),
    ("CCCCN(CCCC)SN(C)C(=O)Oc1cccc2c1OC(C)(C)C2", "37.5 µM (active)"),
    ("CCOS(=O)(=O)OCC", "inactive"),
    ("ClC(Cl)c1ccccc1", "inactive"),
    ("Cc1c([N+](=O)[O-])cc2c(c1[N+](=O)[O-])C(C)(C)CC2(C)C", "37.5 µM (active)"),
    ("Nc1ccc([N+](=O)[O-])cc1Cl", "inactive"),
    ("Cc1cccc(N)c1", "inactive"),
    ("CCC1(c2ccccc2)C(=O)N=C(O)NC1=O (centres undefined)", "inactive"),
]

Each compound below has a recorded value; state its AC50.
1. C=CC(=O)OCC(CC)(COC(=O)C=C)COC(=O)C=C
2. COP(=O)(O)OC
3. CCOC(=O)c1ccccc1C(=O)OCC
4. CCCN(CCC)c1c([N+](=O)[O-])cc(C(C)C)cc1[N+](=O)[O-]
5. CCCCOCCOP(=O)(OCCOCCCC)OCCOCCCC
6. CC(C)Nc1ccc(Nc2ccccc2)cc1
7. c1ccc2c(c1)sc1ccccc12
8. ClC(Cl)=C(c1ccc(Cl)cc1)c1ccccc1Cl

1: 2.98 µM (active); 2: inactive; 3: inactive; 4: inactive; 5: 37.5 µM (active); 6: 9.94 µM (active); 7: inactive; 8: 14.4 µM (active)

Entry `c1ccc(OP(Oc2ccccc2)Oc2ccccc2)cc1` needs its AC50 filled in; supply it.
inactive

----------
# Read-out: Vascular cell adhesion molecule 1 (VCAM1), VCAM1 (gene 7412)
# protocol-text: BSK_hDFCGF_VCAM1: BioMAP Diversity Plus: hDFCGF Assay for Vascular cell adhesion molecule 1 (VCAM1) Biomarker Activity (AID 2283065)
# condition-details: primary human foreskin fibroblasts; actives raise or lower the signal
Activity calls are given as the source filed them. The calls were made as follows: active = hit-call score of the fitted dose curve at least 0.9, where 1 is the maximum; inactive = score below 0.9.
Form entry, call: pick from y = active, n = inactive

# molecule, category
records = [
    ("CCCCN(CCCC)N=O", "n"),
    ("c1cc2c3c(cccc3c1)CC2", "n"),
    ("ClC1=C(Cl)C2(Cl)C3C(Cl)C(Cl)CC3C1(Cl)C2(Cl)Cl (centres undefined)", "y"),
]

Kindly provide the recorded test outcome for the following molecule: CC(O)C(F)(F)C(F)(F)F (centres undefined)
n

----------
# Read-out: Vascular cell adhesion molecule 1 (VCAM1), VCAM1 (gene 7412)
# protocol-text: BSK_CASM3C_VCAM1: BioMAP Diversity Plus: CASM3C Assay for Vascular cell adhesion molecule 1 (VCAM1) Biomarker Activity (AID 2283055);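 further: VCAM-1 protein level quantified by ELISA on the cells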
# condition-details: primary human coronary artery smooth muscle cells; actives raise or lower the signal
Calls of active or inactive are those of the source. Rule for the calls: active = hit-call score of the fitted dose curve at least 0.9, where 1 is the maximum; inactive = score below 0.9.
Form entry, call: pick from 1 for active, -1 for inactive

Take a look at these entries with their results.
# molecule, category
measured = [
    ("CN(C)C(=O)Cl", -1),
    ("CC(C)Nc1ccc(Nc2ccccc2)cc1", 1),
    ("O=C(O)C(F)(F)C(F)(F)C(=O)O", -1),
    ("CCOC(=O)c1ccccc1C(=O)OCC", -1),
]

Kindly provide the recorded test outcome for the following molecule: `Cc1ccc(O)cc1C`
-1

Kindly provide the recorded test outcome for the following molecule: `O=c1ssc(Cl)c1Cl`
1

Kindly provide the recorded test outcome for the following molecule: O=P(OCC(Br)CBr)(OCC(Br)CBr)OCC(Br)CBr (configuration not stated)
-1

Kindly provide the recorded test outcome for the following molecule: `COP(=O)(O)OC`
-1

Kindly provide the recorded test outcome for the following molecule: `c1ccc(OP(Oc2ccccc2)Oc2ccccc2)cc1`
-1

Kindly provide the recorded test outcome for the following molecule: `CCCCCCCc1ccc(O)cc1`
1

----------
# Read-out: Tumor necrosis factor (Homo sapiens) (UniProt P01375)
# Sequence (P01375 whole entry, looked up): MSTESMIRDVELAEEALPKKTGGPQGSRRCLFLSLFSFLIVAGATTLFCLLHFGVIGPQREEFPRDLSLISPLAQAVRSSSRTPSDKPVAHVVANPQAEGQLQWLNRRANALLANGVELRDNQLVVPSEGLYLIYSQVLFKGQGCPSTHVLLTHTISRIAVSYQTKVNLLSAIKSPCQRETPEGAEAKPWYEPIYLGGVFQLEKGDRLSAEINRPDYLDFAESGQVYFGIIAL
# protocol-text: BSK_BT_xTNFa: BioMAP Diversity Plus: BT Assay for Tumor necrosis factor alpha (TNF-alpha) Biomarker Activity (AID 2284230)
# condition-details: primary human B cells with PBMC
The source made the active and inactive calls. How the source made its calls: active means hit-call score of the fitted dose curve at least 0.9, where 1 is the maximum; inactive means score below 0.9.
Form entry, call: pick from active, inactive

Take a look at these entries with their results.
# compound, category
data = [
    ("COC(=O)C(F)(F)C(F)(F)OC(F)(C(F)(F)F)C(F)(F)OC(F)=C(F)F (centres undefined)", "inactive"),
    ("CCCCC(CC)COC(=O)c1c(Br)c(Br)c(Br)c(Br)c1C(=O)OCC(CC)CCCC (centres undefined)", "inactive"),
    ("ClC(Cl)=C(c1ccc(Cl)cc1)c1ccccc1Cl", "active"),
]

Could you now look at the following compound, please?
Kindly provide the recorded test outcome for the following compound: CC(Cl)CN(C)C (centres undefined)
inactive

----------
# Read-out: CYP2E1 (gene 1571)
# protocol-text: LTEA_HepaRG_CYP2E1: Life Technologies and Expression Analysis (LTEA) Assay for CYP2E1 using HepaRG (AID 2283485)
# condition-details: mRNA level, 48 h; actives raise or lower the signal
Calls of active or inactive are those of the source. The calls were made as follows: active = hit-call score of the fitted dose curve at least 0.9, where 1 is the maximum; inactive = score below 0.9.
Form entry, call: pick from 1 (yes) = active, 0 (no) = inactive

# compound, category
records = [
    ("CCCCc1ccccc1", "0 (no)"),
    ("COCCOCCO", "0 (no)"),
]

Kindly provide the recorded test outcome for the following compound: ClC1=C(Cl)C2(Cl)C3C(Cl)C(Cl)CC3C1(Cl)C2(Cl)Cl (centres undefined)
1 (yes)

Kindly provide the recorded test outcome for the following compound: `ClC(Cl)c1ccccc1`
0 (no)

----------
# Read-out: Fatty Acid-Binding Protein 1 (FABP1), FABP1 (gene 2168)
# protocol-text: LTEA_HepaRG_FABP1: Life Technologies and Expression Analysis (LTEA) Assay for Fatty Acid-Binding Protein 1 (FABP1) using HepaRG (AID 2283494)
# condition-details: mRNA level, 48 h; actives raise or lower the signal
Activity calls are given as the source filed them. Rule for the calls: active = hit-call score of the fitted dose curve at least 0.9, where 1 is the maximum; inactive = score below 0.9.
Form entry, call: pick from active, inactive

Take a look at these entries with their results.
# molecule, category
rows = [
    ("CC(Cc1ccc(OCC(=O)O)cc1)NCC(O)c1csc(C(F)(F)F)n1 (stereo unspecified)", "inactive"),
    ("ClC(Cl)c1ccccc1", "inactive"),
]

Kindly provide the recorded test outcome for the following molecule: `Cc1cccc(N)c1`
inactive

Kindly provide the recorded test outcome for the following molecule: CCC1(c2ccccc2)C(=O)N=C(O)NC1=O (stereo unspecified)
inactive

Kindly provide the recorded test outcome for the following molecule: `c1ccc2c(c1)Nc1ccccc1S2`
active

Kindly provide the recorded test outcome for the following molecule: `CN(C)C(=O)Cl`
inactive
